- Test system: EKVX NSCLC
- test_method_notes: NCI-60 one-dose screen, 48 h
- assay_context: 10 µM unless noted
Compounds without any hit were thinned out: in the full panel of roughly 83,000, 20% have a hit. Active and inactive are the calls of the source. Rule for the calls: active = growth percent below 10; inactive = the rest.
Mark one answer only. Choices: class 1 = active, class 0 = inactive

Challenge: Dear all, I need the recorded test outcome for "O=CC1(C2(C=O)c3ccccc3-c3ccccc32)c2ccccc2-c2ccccc21" , thank you.
Response given: class 1

Challenge: Now the same for "CS(=O)(=O)c1cccc(-c2c(-c3cccc(OS(N)(=O)=O)c3)nc3sccn23)c1"
Response given: class 0

Challenge: What would you report for "CN([O-])c1nc(N(C)[O-])nc(N2CCOCC2)n1.CN([O-])c1nc(N(C)[OH2+])nc(N2CCOCC2)n1.[Fe+3]" ?
Response given: class 0

Challenge: Here is the next compound: "CCOC(=O)c1ccc2[nH]c(O)c(C(=Nc3ccc(N(C)C(=O)CN4CCN(C)CC4)cc3)c3ccccc3)c2c1"
Response given: class 1

###

- System: KM12 colon
- test_method_notes: NCI-60 one-dose screen, 48 h
- assay_context: 10 µM unless noted
About 83,000 compounds went through this panel and 20% of them were active in at least one assay; those are over-represented in the sample as a whole. Active and inactive are the calls of the source. How the source made its calls: active means growth percent below 10; inactive means the rest.
Log the outcome using a class from yes (1) = active, no (0) = inactive

Challenge: Query: recorded result category for "COC(=O)/C=C1/SC(=Nc2ccc(C)cc2)N(CCc2c[nH]c3ccc(O)cc23)C1=O" in this test
Response given: no (0)

Challenge: Now the same for Cc1ccc(C(C(N)=O)C(C(N)=O)c2ccccc2)cc1 (stereo unspecified)
Response given: no (0)

Challenge: Now the molecule "CC(C)(C)n1cc(-c2ccnc(NCCNS(=O)(=O)c3cccc4ccccc34)c2)c(-c2cccc(F)c2)n1"
Response given: yes (1)

Challenge: What do we get for "CCn1c(SCC(=O)c2ccc(Br)cc2)nnc1-c1ccncc1" ?
Response given: no (0)

Challenge: Next entry: "Cc1ccc(NC(=S)NNC(=S)NNc2ccccc2)cc1C"
Response given: no (0)

Challenge: Now consider OCCCC1CCN(C(Cc2ccccc2)c2ccccc2)CC1 (stereo unspecified) and answer again.
Response given: no (0)

###

I'd appreciate it if you could supply growth values for the items below.
- System: IGROV1 ovarian
- test_method_notes: NCI-60 one-dose screen, 48 h (100 = growth as untreated, 0 = no growth, -100 = all killed)
- assay_context: 10 µM unless noted
The panel holds about 83,000 compounds, 20% with a hit somewhere; the sample as a whole holds those more often.
Return type: number; implicit unit %.

Challenge: Fill in: growth of "CN(CCOc1ccc(C#N)cc1)CCOc1ccc(C#N)cc1" is ___
Response given: 61.1

Challenge: Then this compound: "COc1cccc(NC(=O)Cn2cc(CN3CCN(c4ccnc5cc(Cl)ccc45)CC3)nn2)c1"
Response given: 84.9

Challenge: Queued: "COc1cc(-c2nc3cc(Cl)c(Cl)cc3[nH]2)ccc1OCC(=O)N=Nc1c(O)[nH]c2ccc([N+](=O)[O-])cc12"
Response given: 87.1

Challenge: What do you get for "O=c1oc2ccccc2cc1C1=NN=C(SCc2ccccc2)SC1" ?
Response given: 101

Challenge: And the next one, "Cc1c(-c2nc3ccc(F)cc3c(=O)[nH]2)c2ccccc2n1C" ?
Response given: 38.9

Challenge: Can you handle "O=C(Cn1cc(CN2CCCCCC2)nn1)Nc1ccc2c(ccn2Cc2ccccc2)c1" next?
Response given: 94

Challenge: Likewise for "COc1cc(OC)c2sc(-c3ccc(-n4cncc4-c4ccc(OC)c(OC)c4)cc3)nc2c1" ?
Response given: 67.2

Challenge: "CC(C)(C)n1cc(-c2ccnc(NCCCNS(=O)(=O)c3ccc(F)cc3)c2)c(-c2cccc(F)c2)n1" , same question.
Response given: 68.6

Challenge: // query: "O=C(Nc1nn(-c2ccc(Cl)cc2Cl)nc1-c1ccccc1)c1ccccc1"
Response given: 95

Challenge: Next: "CC(C)(C)c1cc(-c2nc3ccc(N4CCN(S(C)(=O)=O)CC4)cc3[nH]2)cc(C(C)(C)C)c1O"
Response given: 96.4

Challenge: Lookup "CO[C@H]1/C=C(/C)CCC[C@H](C)[C@H](O)[C@@H](C)C(=O)C(C)(C)[C@@H](O)CC(=O)O[C@@H]1/C(C)=C/c1csc(C)n1"
Response given: 12.8

Challenge: Would you mind doing "O=C(Nc1cc(Cl)ccc1O)c1ccc(Nc2ccnc(C(F)(F)F)c2)cc1" as well?
Response given: 36

Challenge: Let us now turn to "Fc1cc2c(cc1Cl)N(c1ncnc3ccc(-c4cnc5[nH]ncc5c4)cc13)CC2"
Response given: 13.2

Challenge: Now consider Nc1ncnc2c1N=C(c1ccc3c(c1)OCO3)CC(c1cccc(Nc3ccnc4cc(Cl)ccc34)c1)N2 (centres undefined) .
Response given: 59.4

Challenge: Can you handle O=C1N(Cc2ccccc2Cl)c2ccccc2C12NN=C(c1cccc(Cl)c1)S2 (centres undefined) next?
Response given: 20.2

Challenge: Ok, now O=C(c1ccccc1)C1C(=O)N2C(=S)N(c3ccccc3)C(=O)C2C1c1ccc(Cl)cc1 (centres undefined)
Response given: 54.2

Challenge: Next compound: "O=C1c2cccc3cccc(c23)C(=O)N1N1C(=O)c2cccc3c(N4CCOCC4)ccc(c23)C1=O"
Response given: 95.6

Challenge: Proceed to "Oc1ccc(CCn2c(O)c(/C=C3\CN=c4ccccc4=N3)sc2=S)cc1"
Response given: 39.9

Challenge: Okay, and "COc1cc2oc(-c3cccc(NC(=O)c4cccc(Br)c4)c3)cc(=O)c2c(OC)c1OC" ?
Response given: 58.8

Origin of the recorded values: PubChem BioAssay (NCI)
